Biological target: human CRF receptor I (Homo sapiens, UniProt P34998)
Construct: expressed in transfected cells; host or cells: CHO-K1
Sequence (P34998 24-415): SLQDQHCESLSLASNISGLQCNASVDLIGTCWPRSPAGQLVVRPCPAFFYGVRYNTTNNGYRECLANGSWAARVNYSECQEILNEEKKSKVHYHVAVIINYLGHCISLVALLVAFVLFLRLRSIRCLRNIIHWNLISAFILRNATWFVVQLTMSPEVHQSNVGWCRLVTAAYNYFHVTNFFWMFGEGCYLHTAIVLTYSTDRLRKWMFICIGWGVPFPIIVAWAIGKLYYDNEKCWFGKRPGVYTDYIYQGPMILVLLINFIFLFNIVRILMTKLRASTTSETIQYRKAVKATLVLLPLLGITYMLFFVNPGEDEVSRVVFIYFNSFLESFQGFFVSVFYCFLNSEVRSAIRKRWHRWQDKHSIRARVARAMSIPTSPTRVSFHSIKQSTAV
Experiment: Receptor antagonistic activity (cyclic AMP assay)
Assay type: cell-based
Details: human/rat CRF stimulation, 37° C., 15 minutes; read-out: IC50 value, antagonistic activity against CRF (accumulated cyclic AMP)
pIC50: −log10 of the molar value.
measured.property: pIC50

>>> readout_value("CCC(CC)c1cc(C)n2nc(-c3ccc(OC)cc3C)c(C)cc12")
8.31
